Experiment: protein stability index of a GFP-peptide fusion (yeast GPS) (PSI 1-4); higher = more stable; sorted into four equal gates, so the index is relative within each strain
Settings: pdr5∆
Recorded metric: protein stability index
Lab note: jot down the number only; don't add units.

Below, 2 sequences whose answers are already recorded.
- Sequence data: "VKYMPEQKITEIEDGQD [RPO21]"
  protein stability index: 3.12
- Sequence data: "VKKVVKEQTEAAKKSEK [RPL34A]"
  protein stability index: 3.4

Give its protein stability index value. Item: VMTVPGIDPTRIYTNSF [RPO21]
2.11

Would you mind telling me what protein stability index value was observed for PKCHSRENVFFQSQQRR [RPB9] ?
2.65

Could you share which protein stability index value was measured for YHSGRLLIQGPKASSAK [ITC1] ?
3.29

Which protein stability index is listed for SGSAGANPAGASQPEPT [YJL041W/NSP1] ?
3.2

Report protein stability index for TKSHNTVQSWLCDLFVN [NUT1] please.
1.46

Data request, read-out protein stability index, for SLYPPPPPYVKFFTQSN [MED7]
2.17
